target: T1, AFP158/HLA-A*02:01 complex (human); assay: SPR, crude scFv captured, pMHC analyte;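 also: Peptide-MHC complex at several concentrations passed over captured scFv, association then buffer-driven dissociation, on- and off-rates fitted from the curves and KD estimated from them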
T1 construct: flowed as analyte in SPR
Field: label. Allowed values: Yes (koff < 0.008 s⁻¹) or No (koff >= 0.008 s⁻¹).

AS170036 VL1VH1-VHS57Q (scFv) scFv: QSALTQPRSVSGSPGQSVTISCAGTSSDVGSENYVSWYQQHPGKAPKLMIYQVNKRASGVPDRFSGSKSGNTASLTISGLQAEDEADYYCASYRSSDHNIVFGGGTKLTVLGGGGSGGGGSGGGGSEVQLVESGGGLVQPGGSLRLSCAASGFTFSSYAMSWVRQAPGKGLEWVSTINSGTGQPYYADSVKGRFTISRDNSKNTLYLQMNSLRAEDTAVYYCAKNFFDGSWFLGPPAMDYWGQGTLVTVSSHHHHHH ... No
AS170036 VL1VH1-VHS57H (scFv) scFv: QSALTQPRSVSGSPGQSVTISCAGTSSDVGSENYVSWYQQHPGKAPKLMIYQVNKRASGVPDRFSGSKSGNTASLTISGLQAEDEADYYCASYRSSDHNIVFGGGTKLTVLGGGGSGGGGSGGGGSEVQLVESGGGLVQPGGSLRLSCAASGFTFSSYAMSWVRQAPGKGLEWVSTINSGTGHPYYADSVKGRFTISRDNSKNTLYLQMNSLRAEDTAVYYCAKNFFDGSWFLGPPAMDYWGQGTLVTVSSHHHHHH ... Yes
AS170036 VL1VH1-VHG108A (scFv) scFv: QSALTQPRSVSGSPGQSVTISCAGTSSDVGSENYVSWYQQHPGKAPKLMIYQVNKRASGVPDRFSGSKSGNTASLTISGLQAEDEADYYCASYRSSDHNIVFGGGTKLTVLGGGGSGGGGSGGGGSEVQLVESGGGLVQPGGSLRLSCAASGFTFSSYAMSWVRQAPGKGLEWVSTINSGTGSPYYADSVKGRFTISRDNSKNTLYLQMNSLRAEDTAVYYCAKNFFDGSWFLAPPAMDYWGQGTLVTVSSHHHHHH ... No

Now turn to the next binder.
Dear reviewer, please state whether AS170036 VL1VH1-VHG108S (scFv) scFv: QSALTQPRSVSGSPGQSVTISCAGTSSDVGSENYVSWYQQHPGKAPKLMIYQVNKRASGVPDRFSGSKSGNTASLTISGLQAEDEADYYCASYRSSDHNIVFGGGTKLTVLGGGGSGGGGSGGGGSEVQLVESGGGLVQPGGSLRLSCAASGFTFSSYAMSWVRQAPGKGLEWVSTINSGTGSPYYADSVKGRFTISRDNSKNTLYLQMNSLRAEDTAVYYCAKNFFDGSWFLSPPAMDYWGQGTLVTVSSHHHHHH has koff strictly beneath 0.008 s⁻¹.
No
